Where these numbers come from: paper PMC8224985

The entries below are paired with their reported inhibition at 0.3 µM.
# study-system: human SphK2 (Homo sapiens)
# Sequence (Q9NRA0 1-654): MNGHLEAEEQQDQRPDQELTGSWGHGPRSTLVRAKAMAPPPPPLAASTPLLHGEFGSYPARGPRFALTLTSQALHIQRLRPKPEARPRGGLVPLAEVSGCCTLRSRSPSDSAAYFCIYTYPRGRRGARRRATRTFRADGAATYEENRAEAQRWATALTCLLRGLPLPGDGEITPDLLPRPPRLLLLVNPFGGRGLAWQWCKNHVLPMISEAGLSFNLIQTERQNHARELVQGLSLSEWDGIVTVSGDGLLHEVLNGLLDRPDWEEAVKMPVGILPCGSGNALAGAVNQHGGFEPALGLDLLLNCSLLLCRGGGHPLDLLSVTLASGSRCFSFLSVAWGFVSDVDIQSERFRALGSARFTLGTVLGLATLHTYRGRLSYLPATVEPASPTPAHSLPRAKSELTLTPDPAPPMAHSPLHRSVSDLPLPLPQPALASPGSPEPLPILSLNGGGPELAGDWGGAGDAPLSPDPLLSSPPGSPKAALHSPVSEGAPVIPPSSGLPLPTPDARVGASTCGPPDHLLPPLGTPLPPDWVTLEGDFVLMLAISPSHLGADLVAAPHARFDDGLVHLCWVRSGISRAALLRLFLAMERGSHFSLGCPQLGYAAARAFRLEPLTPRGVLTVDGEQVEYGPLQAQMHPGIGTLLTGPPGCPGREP
# method-description: Recombinant hSphK2 activity, single-concentration screen
# measurement-setup: read-out: inhibition of hSphK2 activity, compound 0.3 μM
measured-property: inhibition at 0.3 µM (%)

# compound, study-system, measured-property, censor-symbol, recorded-result
rows = [
    ("CCCCCCCCCCn1ccc2c(-c3noc([C@@H]4CCCN4C(=N)N)n3)cccc21 [Compound 6n]", "human SphK2 (Homo sapiens)", "inhibition at 0.3 µM", "=", 36),
    ("CCCCCCCCCCn1cc(-c2noc([C@@H]3CCCN3C(=N)N)n2)c2ccccc21 [Compound 6h]", "human SphK2 (Homo sapiens)", "inhibition at 0.3 µM", ">", 50),
    ("CCCCCCCCCCn1ccc2cc(-c3noc([C@@H]4CCCN4C(=N)N)n3)ccc21 [Compound 6s]", "human SphK2 (Homo sapiens)", "inhibition at 0.3 µM", "=", 70),
    ("CCCCCCCCCCCCn1cc(-c2noc([C@@H]3CCCN3C(=N)N)n2)c2ccccc21 [Compound 6j]", "human SphK2 (Homo sapiens)", "inhibition at 0.3 µM", ">", 50),
    ("CCCCCCCCCCn1ccc2ccc(-c3noc([C@@H]4CCCN4C(=N)N)n3)cc21 [Compound 6w]", "human SphK2 (Homo sapiens)", "inhibition at 0.3 µM", "=", 32),
]
